assay: Bmi1 luciferase reporter increase in mESCs, primary screen, esBAF inhibitor project, mouse ES cells, Bmi1 luciferase knock-in, single point (AID 602393); settings: 24 h, at 12.5 µM, 100% = twice the neutral-well signal;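 further: 0% = median of the plate's neutral control wells and 100% = double that signal; a rise in the Bmi1 reporter signal indicates esBAF inhibition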
Among all 350,000 compounds or so, about 7,000 (2%) were called active. No stated cut-off is given here; in the data, active means activation above about 40%; inconclusive means no clear call, values can overlap the other calls; inactive means below that. The entries come from a sample that favours actives as a whole.
// allowed return values: True (active), False (inactive)

Some solved cases for reference:
1. COc1ccc(NC(=O)Nc2cccc3c2O[C@H](CN(C)Cc2ccc(Cl)c(Cl)c2)[C@H](C)CN([C@@H](C)CO)C3=O)cc1    False
2. CCN1[C@@H]2c3cccc(=O)n3C[C@H]1[C@H](CO)[C@H]2C(=O)NC1Cc2ccccc2C1    False
3. CCOc1ccc(NC(=O)C/C(C)=N/NC(=O)Cc2cccs2)cc1    False
4. CO[C@H]1CN(C)C(=O)c2ccc(NS(=O)(=O)c3cn(C)cn3)cc2OC[C@@H](C)N(C)C[C@@H]1C    False
5. COc1ccc(S(=O)(=O)Nc2ccc3c(c2)C(=O)N([C@@H](C)CO)C[C@H](C)[C@H](CN(C)Cc2ccc(C(=O)O)cc2)OCCCC[C@@H](C)O3)cc1    False
6. Cc1ccccc1-c1nnn(CC(=O)c2ccc(S(=O)(=O)N3CCCC3)cc2)n1    False

Prompt line: Please share the test call associated with CC(C)(C)NC(=O)Cn1nnc(-c2ccccc2Cl)n1 .
Response line: True

Prompt line: Please share the test call associated with O=C(Cn1nnc(-c2ccccc2)n1)NC(=O)NC1CCCC1 .
Response line: False

Prompt line: Please share the test call associated with CCCNC(=O)C[C@H]1CC[C@H]2[C@H](COc3ccc(NC(=O)CC)cc3C(=O)N2C)O1 .
Response line: False

====

assay: Bmi1 luciferase reporter increase in mESCs, primary screen, esBAF inhibitor project, mouse ES cells, Bmi1 luciferase knock-in, single point (AID 602393); settings: 24 h, at 12.5 µM, 100% = twice the neutral-well signal;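 further: 0% = median of the plate's neutral control wells and 100% = double that signal; a rise in the Bmi1 reporter signal indicates esBAF inhibition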
The whole screen tested about 350,000 compounds, of which about 7,000 (2%) were called active. No stated cut-off is given here; in the data, active means activation above about 40%; inconclusive means no clear call, values can overlap the other calls; inactive means below that. The list comes from a sample in which actives are over-represented; it also holds close analogues and randomly drawn compounds.
// allowed return values: active, inactive

Some solved cases for reference:
1. O=C(Nc1cccc(Cl)c1)N1C[C@@H]2[C@H](c3ccccc31)[C@H](CO)N2C(=O)C1CC1    inactive
2. CC(C)C#Cc1cnc2c(c1)C(=O)N([C@@H](C)CO)C[C@@H](C)[C@@H](CN(C)C(=O)c1cccc(F)c1)O2    inactive
3. NS(=O)(=O)c1ccc(CCNC(=O)c2ccc(Cl)cc2[N+](=O)[O-])cc1    inactive

# ---- query molecule ----
Prompt line: Please share the test call associated with Cc1ccc(C)c(N2CCN(C(=O)CCc3nc(-c4cccc(C(F)(F)F)c4)no3)CC2)c1 .
Response line: active

====

assay: Bmi1 luciferase reporter increase in mESCs, primary screen, esBAF inhibitor project, mouse ES cells, Bmi1 luciferase knock-in, single point (AID 602393); details: 24 h, at 12.5 µM, hits give high values, 100% = twice the neutral-well signal;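 further: 0% = median of the plate's neutral control wells and 100% = double that signal; a rise in the Bmi1 reporter signal indicates esBAF inhibition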
About 7,000 (2%) of roughly 350,000 compounds were called active. Only a selection was taken, and actives are over-represented in it overall.
Measurement Name: reporter increase

Prompt line: Reported reporter increase for CO[C@@H]1CN(C)C(=O)c2cc(NS(=O)(=O)CC(F)(F)F)ccc2OC[C@H](C)N(Cc2ccccn2)C[C@@H]1C : what is it?
Response line: 0.135% (inactive)

Prompt line: Reported reporter increase for O=C(CSCc1cccs1)N1CCCC1 : what is it?
Response line: 33.4% (inactive)

Prompt line: Reported reporter increase for O=C(CSCc1ccc(Cl)cc1)N1CCN(Cc2ccc3c(c2)OCO3)CC1 : what is it?
Response line: -7.9% (inactive)

Prompt line: Reported reporter increase for Cc1noc(C)c1S(=O)(=O)Nc1ccc2c(c1)C(=O)N([C@H](C)CO)C[C@@H](C)[C@@H](CN(C)S(=O)(=O)c1ccc(Cl)cc1)O2 : what is it?
Response line: 6.53% (inactive)

Prompt line: Reported reporter increase for O=C(CSCc1ccc(Cl)cc1)N1CCCCC1 : what is it?
Response line: 47.9% (active)

Prompt line: Reported reporter increase for O=C(CN1CCCSc2ccccc21)N1CCN(S(=O)(=O)c2ccccc2)CC1 : what is it?
Response line: 3.15% (inactive)
